Recorded melting point for the following compounds

The examples below pair each entry with its known result.
compound="Cl.O=c1nc(-c2cc(C3CCCN3)ccn2)sc2ccccc12 (centres unmarked)" result_value="219.4 to 221.4 °C"
compound=O=c1nc(-c2nccs2)sc2ccccc12 result_value="229.1 to 229.8 °C"
compound="CC(C)CC[S+]([O-])c1cccc(-c2nc(=O)c3ccccc3s2)n1 (centres unmarked)" result_value="59.5 to 61 °C"
compound=NC(=O)CCc1cccc(-c2nc(=O)c3ccccc3s2)n1 result_value="236.3 to 236.5 °C"

# evaluate next
Recorded melting point for O=C(O)/C=C/c1ccnc(-c2nc(=O)c3ccccc3s2)c1 , please?
284.3 to 285 °C
